Recorded pIC50 by entry
- assayed.target: T1, hFc-human LIGHT (human)
- T1 construct: also called hFc-huLIGHT
- method.description: competition ELISA, LTβR-His coated, hFc-huLIGHT added
// returns pIC50 (minus log10 of molar concentration), number only

hum_LT-m85-8 (antibody, human IgG4, V domains shown, humanized from LT-m85) VH: QVQLVQSGAEVKKPGASVKVSCKASGYTFTSYNVHWVRQAPGQGLEWIGAVYPGNGDTSYNQKFKGRATLTADKSTSTAYMELSSLRSEDTAVYYCARGSYYYTSSYFDHWGQGTLVTVSS VL: DIVMTQSPDSLAVSLGERATINCKASQSVDFDGDSYMNWYQQKPGQPPKLLIYTASNLESGVPDRFSGSGSGTDFTLTISSLQAEDVAVYYCQQSYEDPFTFGQGTKVEIK | 9.72

stdin: What does the record list as pIC50 for hum_LT-m85-6 (antibody, human IgG4, V domains shown, humanized from LT-m85) VH: QVQLVQSGAEVKKPGASVKVSCKASGYTFTSYNVHWVRQAPGQGLEWMGAVYPGNGDTSYNQKFKGRATLTADKSTSTAYMELSSLRSEDTAVYYCARGSYYYTSSYFDHWGQGTLVTVSS VL: DIVLTQSPDSLAVSLGERATINCKASQSVDFDGDSYMNWYQQKPGQPPKLLIYTASNLESGIPDRFSGSGSGTDFTLTISSLQAEDVAVYYCQQSYEDPFTFGQGTKVEIK ?
stdout: 9.71

All values here come from patent EP4596580A1.
